src = PubChem BioAssay AID743019

- procedureSummary: compound-only thermal shift signal without protein, dose response, artefact control for FGF22 binder project, biochemical, cherry-picked samples, RT-PCR instrument (AID 743019); also: value is where the raw curve crosses a fixed level and not half-maximal
- measurementContext: compound-only SYPRO orange thermal shift counter-screen, no protein; at 38 µM (top of the series) unless noted
In all, about 1,000 compounds went through this assay and about 25 (2%) were called active. These entries were drawn from the full list.
observedProperty: outcome

// below: answered compounds
| chemSmiles | result |
| --- | --- |
| CN1C(=O)c2cccc3c(N)ccc(c23)C1=O | inactive |
| OC[C@H]1[C@H](c2ccc(-c3cccnc3)cc2)[C@H]2CN(Cc3ccccn3)CCCCN21 | inactive |
| C[C@H]1CN([C@@H](C)CO)S(=O)(=O)c2ccc(C3=CCCC3)cc2O[C@H]1CN(C)C(=O)Nc1ccc2c(c1)OCO2 | inactive [at 42 µM] |
| O=C(N/N=C/c1c[nH]c2ccccc12)c1cc2ccccc2o1 | inactive |
| CC(=O)Nc1ccc(S(=O)(=O)N(CCc2ccccc2)CC(=O)N/N=C/c2ccc(C(=O)O)cc2)cc1 | inactive |
| Cc1ccc(S(=O)(=O)NCCC(=O)Nc2ccc(C)c(Cl)c2)cc1C | inactive |
| COCC(=O)Nc1ccc2c(c1)OC[C@H](C)N(C)C[C@@H](C)[C@@H](OC)CN(C)C2=O | inactive [at 42 µM] |
| O=C(Cc1cccnc1)N[C@H]1CC[C@H](CCn2cc(-c3ccccc3F)nn2)O[C@H]1CO | inactive |

Sample `O=C(C[C@H]1CC[C@H]2[C@@H](COC[C@H](O)CN2S(=O)(=O)c2cccc(Cl)c2)O1)Nc1ccccc1` ; outcome observed: inactive [at 42 µM]
